Target: full-length beta-Catenin (Uniprot ID P35222) (Homo sapiens)
Construct: 10 nM full-length beta-Catenin (Uniprot ID P35222)
Sequence (P35222 1-781): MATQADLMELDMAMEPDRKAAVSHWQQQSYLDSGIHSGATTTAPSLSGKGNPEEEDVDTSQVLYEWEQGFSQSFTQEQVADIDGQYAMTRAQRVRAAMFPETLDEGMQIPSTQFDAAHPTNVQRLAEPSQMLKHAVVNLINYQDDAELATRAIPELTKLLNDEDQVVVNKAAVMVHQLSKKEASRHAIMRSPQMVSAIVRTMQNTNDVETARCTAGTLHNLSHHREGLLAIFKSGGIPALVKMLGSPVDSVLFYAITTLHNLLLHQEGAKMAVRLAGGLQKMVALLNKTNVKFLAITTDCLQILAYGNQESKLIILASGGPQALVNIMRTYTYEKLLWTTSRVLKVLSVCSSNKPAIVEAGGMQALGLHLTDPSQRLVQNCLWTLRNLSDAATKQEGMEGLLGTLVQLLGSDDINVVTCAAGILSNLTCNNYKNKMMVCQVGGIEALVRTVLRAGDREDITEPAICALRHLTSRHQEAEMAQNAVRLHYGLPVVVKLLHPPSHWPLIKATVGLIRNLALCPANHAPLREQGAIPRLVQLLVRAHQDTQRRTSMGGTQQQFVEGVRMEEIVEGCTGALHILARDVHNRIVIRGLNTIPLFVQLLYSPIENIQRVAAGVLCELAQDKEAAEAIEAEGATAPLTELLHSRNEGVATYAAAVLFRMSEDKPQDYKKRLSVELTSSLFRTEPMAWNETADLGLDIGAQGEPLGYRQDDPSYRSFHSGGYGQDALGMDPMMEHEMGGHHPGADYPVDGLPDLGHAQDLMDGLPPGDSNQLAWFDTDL
Experiment: Fluorescence polarization IC50 (beta-catenin / 5FAM-TCF4 10-53 competition)
Format: binding
Conditions: fluorescence polarization; read-out: beta-Catenin FP IC50
Quick list: IC50 per entry.
State just the number; it will be interpreted in nM.

Query CC(=O)N[C@]1(C)CCCCCCCCC2(CCCCCCCCOC(=O)N3CC[C@@](C(=O)N[C@@H](Cc4ccccc4C(F)(F)F)C(=O)N[C@@H](Cc4csc5ccccc45)C(=O)N[C@@H](CCC(N)=O)C(N)=O)(C3)NC(=O)[C@H](CC(C)C)NC(=O)[C@H](Cc3ccccc3)NC(=O)[C@H](C)NC(=O)[C@H](C)NC(=O)[C@H](Cc3cccc(C(=O)O)c3)NC(=O)[C@H](CC(=O)O)NC2=O)NC(=O)[C@H](CC(C)(C)C)NC(=O)[C@H](CC(=O)O)NC1=O (some centres unmarked) yields IC50 of 42

Could you now look at the following compound, please?
Query CC(=O)N1CCC[C@]12CCCCCCC1(CCCCCCCCOC(=O)N3CC[C@@](C(=O)N[C@@H](Cc4ccsc4)C(=O)N[C@@H](Cc4csc5ccccc45)C(=O)N[C@H](C(N)=O)[C@@H](C)O)(C3)NC(=O)[C@H](CC(C)C)NC(=O)[C@H](Cc3ccccc3)NC(=O)[C@H](C)NC(=O)[C@H](C)NC(=O)[C@H](CN(CC(=O)O)CC(F)(F)F)NC(=O)[C@H](CC(=O)O)NC1=O)NC(=O)[C@H](CC(C)(C)C)NC(=O)[C@H](CC(=O)O)NC2=O (some centres unmarked) yields IC50 of 224

The measurements presented in this section are drawn from patent US20240116985A1.
